# Test system: Streptococcus pneumoniae (ATCC6305)
# measurementNotes: Microtitre plate assay, IC90 determination
# Format: cell-based
# testConditions: 90% inhibitory concentration for bacterial growth, 37° C., resazurin fluorescence, read-out: IC90 (μg/ml) SPN 6305
valueType: IC90 (µg/mL)

molecule	IC90, µg/mL
CN(C)CCC(O)(c1ccccc1)c1ccc2nc(-c3cccnc3)cc(-c3ccccc3)c2c1 (stereo not shown)	11.5
COc1cc(-c2ccccc2)c2cc(C(O)(CCN(C)C)c3ccccc3)ccc2n1 (stereo not shown)	10.4
CN(C)CCC(O)(c1cccc2ccccc12)c1cc(Br)cc2cc(Cc3ccccc3)c(-n3ccnc3)nc12 (stereo not shown)	14.9
CN(C)CCC(O)(c1cc(F)cc(F)c1)c1cccc2nc(N(C)C)c(-c3ccccc3)cc12 (stereo not shown)	11.6
COc1cc(-c2ccccc2)c2cc(C(O)(CCN(C)C)c3ccccn3)ccc2n1 (stereo not shown)	10.4
COc1nc2cccc(C(O)(CCN(C)C)c3cc(F)cc(F)c3)c2cc1-c1ccccc1 (stereo not shown)	11.3

(A) COc1nc2ccccc2c(CC(O)(CCN(C)C)c2cccc(F)c2)c1Cc1ccccc1 (stereo not shown)
(B) CC(=O)c1ccc(N2CCN(c3nc4c(C(O)(CCN(C)C)c5ccccc5)cc(Br)cc4cc3Cc3ccccc3)CC2)cc1 (stereo not shown)
Which shows the larger IC90 value: A or B ? # answer = label of selected item B
(B: 17 µg/mL, A: 11.5 µg/mL)

(A) CN(C)CCC(O)(c1ccccc1)c1cc(-c2cccnc2)cc2cc(-c3ccccc3)c(-c3cccnc3)nc12 (stereo not shown)
(B) CN(C)CCOc1nc2c(C(O)(CCN(C)C)c3ccccc3)cc(Br)cc2cc1Cc1ccccc1 (stereo not shown)
Which shows the larger IC90 value: A or B ? # answer = label of selected item B
(B: 56.3 µg/mL, A: 13.5 µg/mL)

(1) CN(C)CCC(O)(c1cccc2ccccc12)c1cc(Br)cc2cc(-c3ccccc3)c(-n3cncn3)nc12 (stereo not shown)
(2) COc1nc2cccc(C(O)(CCN(C)C)c3ccco3)c2cc1-c1ccccc1 (stereo not shown)
Problem: Given the entries 1 and 2 , determine which has the lower reported IC90. # answer = label of selected item 2
